assay-method-text: LNP characterization (diameter, PDI, % EE)
Assay type: physicochemical
assay-context: LNP formulated with the named lipid; dynamic light scattering
Label Criterion not met if Diameter (nm) falls below 90 nm; label Criterion met in every other case.

Qu. Does C/C=C\CCCCCCCCC(=O)OCC(O)CN1CCN(CC(O)COC(=O)CCCCCCCC/C=C\C)CCN(CC(O)COC(=O)CCCCCCCC/C=C\C)CCN(CC(O)COC(=O)CCCCCCCC/C=C\C)CCN(CC(O)COC(=O)CCCCCCCC/C=C\C)CCN(CC(O)COC(=O)CCCCCCCC/C=C\C)CC1 (stereo not shown) [AMG1551] have a reported Diameter (nm) of at least 90 nm?
Ans. Criterion not met

Qu. For this molecule, is measured Diameter (nm) 90 nm or higher? CCCC/C=C\CCCCCC(=O)OCC(O)CN1CCN(CC(O)COC(=O)CCCCC/C=C\CCCC)CCN(CC(O)COC(=O)CCCCC/C=C\CCCC)CCN(CC(O)COC(=O)CCCCC/C=C\CCCC)CCN(CC(O)COC(=O)CCCCC/C=C\CCCC)CCN(CC(O)COC(=O)CCCCC/C=C\CCCC)CC1 (stereo not shown) [AMG1548]
Ans. Criterion met

Qu. Kindly determine if Diameter (nm) recorded for C/C=C\C/C=C\CCCCCC(=O)OCC(O)CN1CCN(CC(O)COC(=O)CCCCC/C=C\C/C=C\C)CCN(CC(O)COC(=O)CCCCC/C=C\C/C=C\C)CCN(CC(O)COC(=O)CCCCC/C=C\C/C=C\C)CCN(CC(O)COC(=O)CCCCC/C=C\C/C=C\C)CCN(CC(O)COC(=O)CCCCC/C=C\C/C=C\C)CC1 (stereo not shown) [AMG1556] is above or exactly 90 nm.
Ans. Criterion met

Qu. Dear colleague, could you confirm whether CC/C=C\C/C=C\CCCCC(=O)OCC(O)CN1CCN(CC(O)COC(=O)CCCC/C=C\C/C=C\CC)CCN(CC(O)COC(=O)CCCC/C=C\C/C=C\CC)CCN(CC(O)COC(=O)CCCC/C=C\C/C=C\CC)CCN(CC(O)COC(=O)CCCC/C=C\C/C=C\CC)CCN(CC(O)COC(=O)CCCC/C=C\C/C=C\CC)CC1 (stereo not shown) [AMG1555] has Diameter (nm) at or above 90 nm?
Ans. Criterion not met

Qu. Determine whether measured Diameter (nm) meets or exceeds 90 nm for CC/C=C\CCCCCCCC(=O)OCC(O)CN1CCN(CC(O)COC(=O)CCCCCCC/C=C\CC)CCN(CC(O)COC(=O)CCCCCCC/C=C\CC)CCN(CC(O)COC(=O)CCCCCCC/C=C\CC)CCN(CC(O)COC(=O)CCCCCCC/C=C\CC)CCN(CC(O)COC(=O)CCCCCCC/C=C\CC)CC1 (stereo not shown) [AMG1550]
Ans. Criterion met

Qu. Form field: Diameter (nm) at least 90 nm? Entry: CCCCCC/C=C\CCCC(=O)OCC(O)CN1CCCN(CC(O)COC(=O)CCC/C=C\CCCCCC)CCN(CC(O)COC(=O)CCC/C=C\CCCCCC)CCCN(CC(O)COC(=O)CCC/C=C\CCCCCC)CC1 (stereo not shown) [AMG1041]
Ans. Criterion not met

---

Examples of molecules with documented PDI follow.
assay-method-text: LNP characterization (diameter, PDI, % EE)
Assay type: physicochemical
assay-context: LNP formulated with the named lipid; dynamic light scattering
Reply: number alone, nothing else.

[
  {
    "molecule": "CCC/C=C\\CCCCCCC(=O)OCC(O)CN1CCN(CC(O)COC(=O)CCCCCC/C=C\\CCC)CCN(CC(O)COC(=O)CCCCCC/C=C\\CCC)CCN(CC(O)COC(=O)CCCCCC/C=C\\CCC)CCN(CC(O)COC(=O)CCCCCC/C=C\\CCC)CCN(CC(O)COC(=O)CCCCCC/C=C\\CCC)CC1 (stereo not shown)",
    "PDI": 0.234
  },
  {
    "molecule": "CCCCCC/C=C\\CCCCCCCC(=O)OCC(O)CN1CCCN(CC(O)COC(=O)CCCCCCC/C=C\\CCCCCC)CCN(CC(O)COC(=O)CCCCCCC/C=C\\CCCCCC)CCCN(CC(O)COC(=O)CCCCCCC/C=C\\CCCCCC)CC1 (stereo not shown)",
    "PDI": 0.169
  },
  {
    "molecule": "CC/C=C\\CCCCCCCC(=O)OCC(O)CN1CCN(CC(O)COC(=O)CCCCCCC/C=C\\CC)CCN(CC(O)COC(=O)CCCCCCC/C=C\\CC)CCN(CC(O)COC(=O)CCCCCCC/C=C\\CC)CCN(CC(O)COC(=O)CCCCCCC/C=C\\CC)CCN(CC(O)COC(=O)CCCCCCC/C=C\\CC)CC1 (stereo not shown)",
    "PDI": 0.119
  },
  {
    "molecule": "CCCCCC/C=C\\CCCC(=O)OCC(O)CN1CCN(CC(O)COC(=O)CCC/C=C\\CCCCCC)CCN(CC(O)COC(=O)CCC/C=C\\CCCCCC)CCN(CC(O)COC(=O)CCC/C=C\\CCCCCC)CCN(CC(O)COC(=O)CCC/C=C\\CCCCCC)CCN(CC(O)COC(=O)CCC/C=C\\CCCCCC)CCN(CC(O)COC(=O)CCC/C=C\\CCCCCC)CC1 (stereo not shown)",
    "PDI": 0.156
  },
  {
    "molecule": "CCCCCC/C=C\\CCCC(=O)OCC(O)CN1CCN(CC(O)COC(=O)CCC/C=C\\CCCCCC)CCN(CC(O)COC(=O)CCC/C=C\\CCCCCC)CCN(CC(O)COC(=O)CCC/C=C\\CCCCCC)CCN(CC(O)COC(=O)CCC/C=C\\CCCCCC)CCN(CC(O)COC(=O)CCC/C=C\\CCCCCC)CC1 (stereo not shown)",
    "PDI": 0.107
  },
  {
    "molecule": "CCC/C=C\\C/C=C\\CCCC(=O)OCC(O)CN1CCN(CC(O)COC(=O)CCC/C=C\\C/C=C\\CCC)CCN(CC(O)COC(=O)CCC/C=C\\C/C=C\\CCC)CCN(CC(O)COC(=O)CCC/C=C\\C/C=C\\CCC)CCN(CC(O)COC(=O)CCC/C=C\\C/C=C\\CCC)CCN(CC(O)COC(=O)CCC/C=C\\C/C=C\\CCC)CC1 (stereo not shown)",
    "PDI": 0.1
  },
  {
    "molecule": "CCCCC/C=C\\CCCCC(=O)OCC(O)CN1CCN(CC(O)COC(=O)CCCC/C=C\\CCCCC)CCN(CC(O)COC(=O)CCCC/C=C\\CCCCC)CCN(CC(O)COC(=O)CCCC/C=C\\CCCCC)CCN(CC(O)COC(=O)CCCC/C=C\\CCCCC)CCN(CC(O)COC(=O)CCCC/C=C\\CCCCC)CC1 (stereo not shown)",
    "PDI": 0.142
  },
  {
    "molecule": "CCCC/C=C\\C/C=C\\CCC(=O)OCC(O)CN1CCN(CC(O)COC(=O)CC/C=C\\C/C=C\\CCCC)CCN(CC(O)COC(=O)CC/C=C\\C/C=C\\CCCC)CCN(CC(O)COC(=O)CC/C=C\\C/C=C\\CCCC)CCN(CC(O)COC(=O)CC/C=C\\C/C=C\\CCCC)CCN(CC(O)COC(=O)CC/C=C\\C/C=C\\CCCC)CC1 (stereo not shown)",
    "PDI": 0.09
  },
  {
    "molecule": "CCCC/C=C\\CCCCCC(=O)OCC(O)CN1CCN(CC(O)COC(=O)CCCCC/C=C\\CCCC)CCN(CC(O)COC(=O)CCCCC/C=C\\CCCC)CCN(CC(O)COC(=O)CCCCC/C=C\\CCCC)CCN(CC(O)COC(=O)CCCCC/C=C\\CCCC)CCN(CC(O)COC(=O)CCCCC/C=C\\CCCC)CC1 (stereo not shown)",
    "PDI": 0.106
  },
  {
    "molecule": "C/C=C\\C/C=C\\CCCCCC(=O)OCC(O)CN1CCN(CC(O)COC(=O)CCCCC/C=C\\C/C=C\\C)CCN(CC(O)COC(=O)CCCCC/C=C\\C/C=C\\C)CCN(CC(O)COC(=O)CCCCC/C=C\\C/C=C\\C)CCN(CC(O)COC(=O)CCCCC/C=C\\C/C=C\\C)CCN(CC(O)COC(=O)CCCCC/C=C\\C/C=C\\C)CC1 (stereo not shown)",
    "PDI": 0.121
  }
]

Qu. Look up PDI: CC/C=C\C/C=C\CCCCC(=O)OCC(O)CN1CCN(CC(O)COC(=O)CCCC/C=C\C/C=C\CC)CCN(CC(O)COC(=O)CCCC/C=C\C/C=C\CC)CCN(CC(O)COC(=O)CCCC/C=C\C/C=C\CC)CCN(CC(O)COC(=O)CCCC/C=C\C/C=C\CC)CCN(CC(O)COC(=O)CCCC/C=C\C/C=C\CC)CC1 (stereo not shown)
Ans. 0.077

Qu. I am curious: what PDI value has been reported for CCCCCC/C=C\CCCC(=O)OCC(O)CN1CCCN(CC(O)COC(=O)CCC/C=C\CCCCCC)CCN(CC(O)COC(=O)CCC/C=C\CCCCCC)CCCN(CC(O)COC(=O)CCC/C=C\CCCCCC)CC1 (stereo not shown) ?
Ans. 0.113

Qu. // query PDI value for entry C/C=C\CCCCCCCCC(=O)OCC(O)CN1CCN(CC(O)COC(=O)CCCCCCCC/C=C\C)CCN(CC(O)COC(=O)CCCCCCCC/C=C\C)CCN(CC(O)COC(=O)CCCCCCCC/C=C\C)CCN(CC(O)COC(=O)CCCCCCCC/C=C\C)CCN(CC(O)COC(=O)CCCCCCCC/C=C\C)CC1 (stereo not shown)
Ans. 0.145
